# Tested on: E. coli TESEC Mtb Alr
# Experimental details: growth (OD600 after 10 h); higher = more growth (less inhibition)
# Run conditions: arabinose 100 nM; compound 0.1 mM; raw OD600 reference: median of DMSO wells 0.413, cell-free background 0.052
Where a name gives a salt, the structure may show the parent alone.
Recorded growth values for a group of compounds are listed next.
API doc: respond with a numeric literal and nothing else, no unit.

Use these answered entries as a reference point.
CC(C)(Oc1ccc(Cl)cc1)C(=O)O	0.404
CC(CNC1CCCCC1)OC(=O)c1ccccc1 (stereo not drawn) [Hexylcaine hydrochloride]	0.409
CN(C)CCOc1ccc(/C(=C(/CCCl)c2ccccc2)c2ccccc2)cc1	0.0666

// returns reported growth for input `COc1ccc2cc([C@H](C)C(=O)O)ccc2c1`
0.42

Next compound up: OCCN1CCN(CCCN2c3ccccc3Sc3ccc(C(F)(F)F)cc32)CC1 [Fluphenazine dihydrochloride]
0.286

And then `N[C@@H](C(=O)N[C@@H]1C(=O)N2C(C(=O)O)=C(Cl)CC[C@H]12)c1ccccc1` , what is it?
0.0487

What about this compound? NC(=O)c1cc[n+](CC2=C(C(=O)[O-])N3C(=O)[C@@H](NC(=O)[C@@H](c4ccccc4)S(=O)(=O)O)[C@H]3SC2)cc1 [Cefsulodin sodium salt]
0.366

For CC1CCc2cc(F)cc3c(=O)c(C(=O)O)cn1c23 (stereo not drawn) then?
0.0543

###

# Test system: E. coli TESEC Mtb Alr
# Experimental details: growth (OD600 after 10 h); higher = more growth (less inhibition)
# Run conditions: arabinose 1000000 nM; compound 0.1 mM; raw OD600 reference: median of DMSO wells 0.193, cell-free background 0.041
Counter-ions that a name gives are not always drawn.
Value kind: growth
// keep it numeric: no unit symbol after the value

Example results:
O=C1CN(/N=C/c2ccc([N+](=O)[O-])o2)C(=O)N1	0.0737
CN[C@@H]1[C@H](O)[C@H](NC)[C@H]2O[C@@]3(O)C(=O)C[C@@H](C)O[C@H]3O[C@@H]2[C@H]1O [Spectinomycin dihydrochloride]	0.0512
CC(=O)OCC(=O)[C@@]12OC(C)(C)O[C@@H]1C[C@H]1[C@@H]3C[C@H](F)C4=CC(=O)C=C[C@]4(C)[C@@]3(F)[C@@H](O)C[C@@]12C [Fluocinonide]	0.213
O=C1O[C@H]([C@@H](O)CO)C(O)=C1O	0.186

Entry C[C@@H]1C[C@H]2[C@@H]3C[C@H](F)C4=CC(=O)C=C[C@]4(C)[C@@]3(Cl)[C@@H](O)C[C@]2(C)[C@H]1C(=O)COC(=O)C(C)(C)C [Clocortolone pivalate] , system E. coli TESEC Mtb Alr: what growth was measured?
0.2

Next record, please: Cc1ccc(C(=O)c2ccc(CC(=O)O)n2C)cc1 [Tolmetin sodium salt dihydrate]
0.184

How about this compound: Cc1[nH]cnc1CN1CCc2c(c3ccccc3n2C)C1=O [Alosetron hydrochloride]
0.178

Please do the same for O=C1Cc2cc(CCN3CCN(c4nsc5ccccc45)CC3)c(Cl)cc2N1 [Ziprasidone Hydrochloride] as well.
0.179

// same read-out, input: CC(C)Cc1ccc([C@H](C)C(=O)O)cc1 [S-(+)-ibuprofen]
0.194

What do you get for NC[C@H]1O[C@H](O[C@H]2[C@H](O[C@@H]3O[C@H](CO)[C@@H](O)[C@H]3O)[C@@H](O)[C@H](N)C[C@@H]2N)[C@H](N)[C@@H](O)[C@@H]1O [Ribostamycin sulfate salt] ?
0.201

Field entry: Cc1cc(C(C)(C)CC(C)(C)C)ccc1OCCOCC[N+](C)(C)Cc1ccccc1 [Methyl benzethonium chloride]
0.0449

Entry to check: COc1cc(C(=O)OCCCN2CCCN(CCCOC(=O)c3cc(OC)c(OC)c(OC)c3)CC2)cc(OC)c1OC [Dilazep dihydrochloride]
0.118

Now consider Cc1ccsc1/C=C/C1=NCCCN1C [Morantel tartrate] and answer again.
0.176

Try `CC(C)(C#N)c1cc(Cn2cncn2)cc(C(C)(C)C#N)c1` next.
0.183

Lookup O=C(O)/C=C/c1ccc(Cn2ccnc2)cc1 [Ozagrel hydrochloride]
0.179

Could you do the same for CCOC(=O)C1=C(C)NC(C)=C(C(=O)OC)C1c1cccc(Cl)c1Cl (configuration not stated) , please?
0.0517

Similarly, `S=c1[nH]cnc2nc[nH]c12` ?
0.0545

Okay, and CN(C)CCn1nnnc1SCC1=C(C(=O)O)N2C(=O)[C@@H](NC(=O)Cc3csc(N)n3)[C@H]2SC1 [Cefotiam hydrochloride] ?
0.045

Same lookup for `CC[C@]12CCCN3CCc4c(n(c5ccccc45)[C@@](O)(C(=O)OC)C1)[C@@H]32` , please.
0.173

###

# Tested on: E. coli TESEC Mtb Alr
# Experimental details: growth (OD600 after 10 h); higher = more growth (less inhibition)
# Run conditions: arabinose 10000 nM; compound 0.1 mM; raw OD600 reference: median of DMSO wells 0.264, cell-free background 0.041
Counter-ions that a name gives are not always drawn.
Value kind: growth
Just the number, please.

Past entries and their recorded results:
O=C(O)CCNC(=O)c1ccc(/N=N/c2ccc(O)c(C(=O)O)c2)cc1 [Balsalazide Sodium]	0.266
CC(=O)OCC1=C(C(=O)O)N2C(=O)[C@@H](NC(=O)Cc3cccs3)[C@H]2SC1 [Cephalothin sodium salt]	0.209
c1cnc(N2CCN(Cc3ccc4c(c3)OCO4)CC2)nc1 [Piribedil hydrochloride]	0.256

# input compound: `CCCCOc1ccc(CC(=O)NO)cc1` ; wanted: its growth
0.243

Now give it for CCCOc1ccc(C(=O)OCCN(CC)CC)cc1N [Proparacaine hydrochloride] too.
0.268

Try the compound CN1CCN(C2=Nc3ccccc3Oc3ccc(Cl)cc32)CC1 [Loxapine succinate]
0.194

Let us now turn to COC(=O)[C@@H]1[C@H]2C[C@H]3c4[nH]c5ccccc5c4CCN3C[C@@H]2CC[C@@H]1O [Yohimbine hydrochloride]
0.265

Thanks! And `O=C(O)CCc1nc(-c2ccccc2)c(-c2ccccc2)o1` ?
0.206

###

# Tested on: E. coli TESEC Mtb Alr
# Experimental details: growth (OD600 after 10 h); higher = more growth (less inhibition)
# Run conditions: arabinose 10000000 nM; compound 0.1 mM; raw OD600 reference: median of DMSO wells 0.146, cell-free background 0.041
Where a name gives a salt, the structure may show the parent alone.
Value kind: growth

Worked cases, growth given:
CC(C)(C(=O)c1cccnc1)c1cccnc1 [Metyrapone]	0.141
COc1ccc2[nH]c([S+]([O-])Cc3ncc(C)c(OC)c3C)nc2c1 (stereo not drawn) [Omeprazole]	0.131
CN1CCN(c2c(F)cc3c(=O)c(C(=O)O)cn(CCF)c3c2F)CC1 [Fleroxacin]	0.0554
COc1ccc(C(=O)c2ccccc2O)c(O)c1 [Dioxybenzone]	0.107
Nc1ccccc1S(N)(=O)=O [2-Aminobenzenesulfonamide]	0.137

Form field - read-out: growth; system: E. coli TESEC Mtb Alr; submitted item: Cc1cc(-n2c(=O)[nH]c(=O)n(C)c2=O)ccc1Oc1ccc(SC(F)(F)F)cc1 [Toltrazuril]
0.0455

Next: COc1ccc(OC)c(C(O)CNC(=O)CN)c1 (stereo not drawn) [Midodrine hydrochloride]
0.141

###

# System: E. coli TESEC Mtb Alr
# Experimental details: growth (OD600 after 10 h); higher = more growth (less inhibition)
# Run conditions: arabinose 1000000 nM; compound 0.1 mM; raw OD600 reference: median of DMSO wells 0.193, cell-free background 0.041
Counter-ions that a name gives are not always drawn.
growth by entry:
Field format: numeric only.

NS(=O)(=O)c1cc(Cl)c(Cl)c(S(N)(=O)=O)c1 [Dichlorphenamide]	0.186

Requested field: growth. Item: O=C1NCC2(CCN(CCc3ccccc3)CC2)O1 [Fenspiride hydrochloride]
0.185

Here is the next compound: `COc1ccc(-c2cc(=O)c3c(O)cc(O[C@@H]4O[C@H](CO[C@@H]5O[C@@H](C)[C@H](O)[C@@H](O)[C@H]5O)[C@@H](O)[C@H](O)[C@H]4O)cc3o2)cc1O`
0.192

###

# System: E. coli TESEC Mtb Asd
# Experimental details: growth (OD600 after 10 h); higher = more growth (less inhibition)
# Run conditions: arabinose induction (level): High; compound 0.1 mM; raw OD600 reference: median of DMSO wells 0.331, cell-free background 0.041
Counter-ions that a name gives are not always drawn.
Threshold rule: growth greater than or equal to 0.2 is met; below that, not met.

O=C(O)CN(CCN(CC(=O)O)CC(=O)O)CCN(CC(=O)O)CC(=O)O [Pentetic acid]	not met
CC(C)NC(=N)NC(=N)Nc1ccc(Cl)cc1 [Proguanil hydrochloride]	met
CC(=C(CCO)SSCC1CCCO1)N(C=O)Cc1cnc(C)nc1N (stereo in doubt) [Fursultiamine Hydrochloride]	met
Cc1oncc1C(=O)Nc1ccc(C(F)(F)F)cc1 [Leflunomide]	met
CCCc1nc2c(C)cc(-c3nc4ccccc4n3C)cc2n1Cc1ccc(-c2ccccc2C(=O)O)cc1 [Telmisartan]	met
CC(=O)Nc1ccc(CC(=O)O)cc1 [Actarit]	met

Hi team, for COc1ccc2c(c1)c(CC(=O)OCC(=O)O)c(C)n2C(=O)c1ccc(Cl)cc1 [Acemetacin] , is the recorded growth at or above 0.2?
met

Ok, now c1ccc(-c2ccc(C(c3ccccc3)n3ccnc3)cc2)cc1 (stereo unspecified) [Bifonazole]
not met

Please give the result for Clc1ccc(C(Cn2ccnc2)OCc2csc3c(Cl)cccc23)c(Cl)c1 (stereo unspecified) [Sertaconazole nitrate] too.
not met

What about this molecule? CN(CCOc1ccc(NS(C)(=O)=O)cc1)CCc1ccc(NS(C)(=O)=O)cc1 [Dofetilide]
met

Same for CN1C(C(=O)Nc2ccccn2)=C(O)c2ccccc2S1(=O)=O [Piroxicam]
met

Try COc1cc2nc(N3CCN(C(=O)C4COc5ccccc5O4)CC3)nc(N)c2cc1OC (stereo unspecified) [Doxazosin mesylate] next.
not met
